- experimental-details: Volume of distribution at steady state in iv dosed dog
- Type: ADME, organism-based, Canis lupus familiaris
- test-parameters: in vivo, read-out: Vdss

[
  {
    "given-smiles": "CC(=O)CCCCC[C@H](NC(=O)C1CCN(C)CC1)c1ncc(-c2ccc3ccccc3c2)[nH]1",
    "Vd [L/kg]": 5.2
  }
]

---

- experimental-system: Protein deacetylase HDAC6 (Homo sapiens)
- Sequence (Q9UBN7 whole entry): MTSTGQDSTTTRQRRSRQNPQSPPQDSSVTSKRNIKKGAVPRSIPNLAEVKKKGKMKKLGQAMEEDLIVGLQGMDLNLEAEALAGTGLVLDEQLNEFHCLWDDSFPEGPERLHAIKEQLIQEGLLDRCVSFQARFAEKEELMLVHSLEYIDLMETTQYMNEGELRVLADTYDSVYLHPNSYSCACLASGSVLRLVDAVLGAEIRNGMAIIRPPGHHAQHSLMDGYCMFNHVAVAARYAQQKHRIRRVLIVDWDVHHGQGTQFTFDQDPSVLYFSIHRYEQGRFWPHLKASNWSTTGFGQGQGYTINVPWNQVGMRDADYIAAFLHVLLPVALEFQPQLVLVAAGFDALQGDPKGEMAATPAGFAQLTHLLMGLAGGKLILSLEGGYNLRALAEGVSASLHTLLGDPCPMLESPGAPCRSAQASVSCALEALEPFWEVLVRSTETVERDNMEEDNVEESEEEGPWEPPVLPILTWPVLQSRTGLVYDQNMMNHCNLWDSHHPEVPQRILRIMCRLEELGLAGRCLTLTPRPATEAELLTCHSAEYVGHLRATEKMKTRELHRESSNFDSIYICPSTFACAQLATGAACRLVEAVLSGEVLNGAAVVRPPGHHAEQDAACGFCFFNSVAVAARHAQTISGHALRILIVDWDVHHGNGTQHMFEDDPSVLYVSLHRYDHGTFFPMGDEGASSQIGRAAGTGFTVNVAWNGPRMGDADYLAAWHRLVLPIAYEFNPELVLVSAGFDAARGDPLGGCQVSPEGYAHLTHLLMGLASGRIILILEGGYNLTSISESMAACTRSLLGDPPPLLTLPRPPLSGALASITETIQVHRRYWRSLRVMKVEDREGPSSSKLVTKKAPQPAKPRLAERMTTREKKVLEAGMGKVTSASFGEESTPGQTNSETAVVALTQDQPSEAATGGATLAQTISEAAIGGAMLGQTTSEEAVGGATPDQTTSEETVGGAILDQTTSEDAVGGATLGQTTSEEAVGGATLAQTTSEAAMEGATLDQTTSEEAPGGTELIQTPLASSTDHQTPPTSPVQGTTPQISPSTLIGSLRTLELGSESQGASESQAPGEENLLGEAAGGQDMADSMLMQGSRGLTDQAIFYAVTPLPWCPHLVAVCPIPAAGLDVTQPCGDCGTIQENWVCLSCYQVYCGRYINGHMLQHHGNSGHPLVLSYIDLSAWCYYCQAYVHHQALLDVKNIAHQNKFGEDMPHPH
pIC50: −log10 of the molar value.
// reported pIC50 per item
readout-kind: pIC50

[
  {
    "given-smiles": "CC(=O)CCCCC[C@H](NC(=O)C1CCN(C)CC1)c1ncc(-c2ccc3ccccc3c2)[nH]1",
    "reported": 8.00
  },
  {
    "given-smiles": "CCCC(=O)CCCCC[C@H](NC(=O)C1CCN(C)CC1)c1ncc(-c2ccc3ccccc3c2)[nH]1",
    "reported": 5.85
  },
  {
    "given-smiles": "CCC(=O)CCCCC[C@H](NC(=O)C1CCN(C)CC1)c1ncc(-c2ccc3ccccc3c2)[nH]1",
    "reported": 6.10
  },
  {
    "given-smiles": "CCCCC(=O)CCCCC[C@H](NC(=O)C1CCN(C)CC1)c1ncc(-c2ccc3ccccc3c2)[nH]1",
    "reported": 5.46
  }
]

---

- experimental-details: Protein binding in dog plasma
- Format: ADME, cell-free, Canis lupus familiaris
- test-parameters: read-out: PPB (converted)

[
  {
    "given-smiles": "CC(=O)CCCCC[C@H](NC(=O)C1CCN(C)CC1)c1ncc(-c2ccc3ccccc3c2)[nH]1",
    "fraction unbound": 0.04
  }
]

---

- experimental-details: Metabolic stability in rat liver microsomes assessed as intrinsic clearance
- Format: ADME, Microsome
Tag: YES if measured microsomal CLint is not below 100 µL/min/mg, NO if it is.

[
  {
    "compound": "CC(=O)CCCCC[C@H](NC(=O)C1CCN(C)CC1)c1ncc(-c2ccc3ccccc3c2)[nH]1",
    "class-name": "YES"
  },
  {
    "compound": "CC(=O)CCCCC[C@H](NC(=O)C1CCN(C)CC1)c1ncc(-c2ccc(Cl)cc2)[nH]1",
    "class-name": "YES"
  },
  {
    "compound": "CC(=O)CCCCC[C@H](NC(=O)CCN1CC2CCC1C2)c1ncc(-c2ccccc2)[nH]1 (some centres not stated)",
    "class-name": "YES"
  },
  {
    "compound": "CC(=O)CCCCC[C@H](NC(=O)C1CCCCN1C)c1ncc(-c2ccccc2)[nH]1 (some centres not stated)",
    "class-name": "YES"
  },
  {
    "compound": "CC(=O)CCCCC[C@H](NC(=O)CN1CCN(C)CC1)c1ncc(-c2ccccc2)[nH]1",
    "class-name": "NO"
  },
  {
    "compound": "COc1ccc2[nH]c(C)c(CC(=O)N[C@@H](CCCCCC(C)=O)c3ncc(-c4ccccc4)[nH]3)c2c1",
    "class-name": "YES"
  }
]

Values compiled from ChEMBL document CHEMBL1152225.
